Conditions: in acetonitrile, 310.65 K
READOUT: solubility (mole fraction)

| MOLECULE SMILES | READOUT | VALUE |
| --- | --- | --- |
| Cc1ccc(N)c([N+](=O)[O-])c1 | solubility (mole fraction) | 0.0955 |

* * *

Settings: in 1,2-dichloroethane, 303.15 K

| MOLECULE SMILES | solubility (mole fraction) |
| --- | --- |
| Cc1ccc(N)c([N+](=O)[O-])c1 | 0.0692 |

* * *

Conditions: in 1,2-dichloroethane, 280.65 K
READOUT: solubility (mole fraction)

| MOLECULE SMILES | READOUT | VALUE |
| --- | --- | --- |
| Cc1ccc(N)c([N+](=O)[O-])c1 | solubility (mole fraction) | 0.0326 |

* * *

Conditions: in chlorobenzene, 303.15 K

| MOLECULE SMILES | solubility (mole fraction) |
| --- | --- |
| Cc1ccc(N)c([N+](=O)[O-])c1 | 0.0421 |

* * *

Settings: in ethanol, 293.15 K
READOUT: solubility (mole fraction)

| MOLECULE SMILES | READOUT | VALUE |
| --- | --- | --- |
| Cc1ccc(N)c([N+](=O)[O-])c1 | solubility (mole fraction) | 0.0165 |

* * *

Conditions: in ethanol, 313.15 K
READOUT: solubility (mole fraction)

| MOLECULE SMILES | READOUT | VALUE |
| --- | --- | --- |
| Cc1ccc(N)c([N+](=O)[O-])c1 | solubility (mole fraction) | 0.0312 |

* * *

Settings: in 2-butanone, 310.65 K

| MOLECULE SMILES | solubility (mole fraction) |
| --- | --- |
| Cc1ccc(N)c([N+](=O)[O-])c1 | 0.249 |

* * *

Settings: in ethanol, 283.15 K
READOUT: solubility (mole fraction)

| MOLECULE SMILES | VALUE |
| --- | --- |
| Cc1ccc(N)c([N+](=O)[O-])c1 | 0.0118 |

* * *

Conditions: in n-butanol, 295.65 K

| MOLECULE SMILES | solubility (mole fraction) |
| --- | --- |
| Cc1ccc(N)c([N+](=O)[O-])c1 | 0.0232 |

* * *

Conditions: in ethanol, 300.65 K

| MOLECULE SMILES | solubility (mole fraction) |
| --- | --- |
| Cc1ccc(N)c([N+](=O)[O-])c1 | 0.021 |

* * *

Settings: in DMF, 298.15 K

| MOLECULE SMILES | solubility (mole fraction) |
| --- | --- |
| Cc1ccc(N)c([N+](=O)[O-])c1 | 0.171 |

* * *

Details: in DMF, 295.65 K

| MOLECULE SMILES | solubility (mole fraction) |
| --- | --- |
| Cc1ccc(N)c([N+](=O)[O-])c1 | 0.161 |

* * *

Conditions: in methanol, 293.15 K
READOUT: solubility (mole fraction)

| MOLECULE SMILES | VALUE |
| --- | --- |
| Cc1ccc(N)c([N+](=O)[O-])c1 | 0.0144 |

* * *

Conditions: in methanol, 285.65 K
READOUT: solubility (mole fraction)

| MOLECULE SMILES | VALUE |
| --- | --- |
| Cc1ccc(N)c([N+](=O)[O-])c1 | 0.0112 |

* * *

Conditions: in ethyl acetate, 278.15 K

| MOLECULE SMILES | solubility (mole fraction) |
| --- | --- |
| Cc1ccc(N)c([N+](=O)[O-])c1 | 0.076 |

* * *

Conditions: in 1,2-dichloroethane, 283.15 K
READOUT: solubility (mole fraction)

| MOLECULE SMILES | VALUE |
| --- | --- |
| Cc1ccc(N)c([N+](=O)[O-])c1 | 0.0355 |

* * *

Conditions: in 2-butanone, 278.15 K

| MOLECULE SMILES | solubility (mole fraction) |
| --- | --- |
| Cc1ccc(N)c([N+](=O)[O-])c1 | 0.12 |

* * *

Settings: in isopropanol, 288.15 K

| MOLECULE SMILES | solubility (mole fraction) |
| --- | --- |
| Cc1ccc(N)c([N+](=O)[O-])c1 | 0.0146 |

* * *

Conditions: in ethanol, 280.65 K

| MOLECULE SMILES | solubility (mole fraction) |
| --- | --- |
| Cc1ccc(N)c([N+](=O)[O-])c1 | 0.0107 |

* * *

Details: in ethanol, 285.65 K

| MOLECULE SMILES | solubility (mole fraction) |
| --- | --- |
| Cc1ccc(N)c([N+](=O)[O-])c1 | 0.0128 |

* * *

Settings: in 1,4-dioxane, 308.15 K
READOUT: solubility (mole fraction)

| MOLECULE SMILES | READOUT | VALUE |
| --- | --- | --- |
| Cc1ccc(N)c([N+](=O)[O-])c1 | solubility (mole fraction) | 0.121 |

* * *

Settings: in tetrachloromethane, 285.65 K
READOUT: solubility (mole fraction)

| MOLECULE SMILES | VALUE |
| --- | --- |
| Cc1ccc(N)c([N+](=O)[O-])c1 | 0.00333 |

* * *

Conditions: in isopropanol, 285.65 K

| MOLECULE SMILES | solubility (mole fraction) |
| --- | --- |
| Cc1ccc(N)c([N+](=O)[O-])c1 | 0.0134 |

* * *

Conditions: in tetrachloromethane, 295.65 K

| MOLECULE SMILES | solubility (mole fraction) |
| --- | --- |
| Cc1ccc(N)c([N+](=O)[O-])c1 | 0.00497 |

* * *

Conditions: in n-propanol, 303.15 K
READOUT: solubility (mole fraction)

| MOLECULE SMILES | READOUT | VALUE |
| --- | --- | --- |
| Cc1ccc(N)c([N+](=O)[O-])c1 | solubility (mole fraction) | 0.0257 |

* * *

Conditions: in 2-butanone, 280.65 K
READOUT: solubility (mole fraction)

| MOLECULE SMILES | VALUE |
| --- | --- |
| Cc1ccc(N)c([N+](=O)[O-])c1 | 0.128 |

* * *

Conditions: in n-propanol, 298.15 K

| MOLECULE SMILES | solubility (mole fraction) |
| --- | --- |
| Cc1ccc(N)c([N+](=O)[O-])c1 | 0.0218 |

* * *

Conditions: in tetrachloromethane, 305.65 K

| MOLECULE SMILES | solubility (mole fraction) |
| --- | --- |
| Cc1ccc(N)c([N+](=O)[O-])c1 | 0.00721 |

* * *

Conditions: in chlorobenzene, 313.15 K

| MOLECULE SMILES | solubility (mole fraction) |
| --- | --- |
| Cc1ccc(N)c([N+](=O)[O-])c1 | 0.0611 |

* * *

Conditions: in 1,2-dichloroethane, 288.15 K
READOUT: solubility (mole fraction)

| MOLECULE SMILES | READOUT | VALUE |
| --- | --- | --- |
| Cc1ccc(N)c([N+](=O)[O-])c1 | solubility (mole fraction) | 0.0432 |

* * *

Conditions: in acetonitrile, 295.65 K

| MOLECULE SMILES | solubility (mole fraction) |
| --- | --- |
| Cc1ccc(N)c([N+](=O)[O-])c1 | 0.0543 |

* * *

Conditions: in 1,4-dioxane, 310.65 K
READOUT: solubility (mole fraction)

| MOLECULE SMILES | READOUT | VALUE |
| --- | --- | --- |
| Cc1ccc(N)c([N+](=O)[O-])c1 | solubility (mole fraction) | 0.134 |

* * *

Settings: in chlorobenzene, 308.15 K

| MOLECULE SMILES | solubility (mole fraction) |
| --- | --- |
| Cc1ccc(N)c([N+](=O)[O-])c1 | 0.0507 |

* * *

Conditions: in isopropanol, 283.15 K

| MOLECULE SMILES | solubility (mole fraction) |
| --- | --- |
| Cc1ccc(N)c([N+](=O)[O-])c1 | 0.0122 |

* * *

Conditions: in ethanol, 298.15 K

| MOLECULE SMILES | solubility (mole fraction) |
| --- | --- |
| Cc1ccc(N)c([N+](=O)[O-])c1 | 0.0194 |

* * *

Conditions: in acetonitrile, 308.15 K

| MOLECULE SMILES | solubility (mole fraction) |
| --- | --- |
| Cc1ccc(N)c([N+](=O)[O-])c1 | 0.0872 |

* * *

Conditions: in n-butanol, 288.15 K

| MOLECULE SMILES | solubility (mole fraction) |
| --- | --- |
| Cc1ccc(N)c([N+](=O)[O-])c1 | 0.018 |
